// data source = patent US20220235073A1

system: RWPE-1 human prostate normal cells; experiment: Cell viability MTT assay, RWPE-1; assay type: cell-based; conditions: Homo sapiens, RWPE-1; Table 3, non tumoral cell model; read-out: IC50 RWPE1 (prostatic epithelial cells)
measuredProperty: IC50 (µM)
One number for each entry, in µM.

# input What IC50 value was documented for this molecule, C[C@H]1[C@@H](O)O[C@@H]2O[C@]3(C)CC[C@H]4[C@H](C)CC[C@@H]1[C@@]24OO3 [DHA, dihydroartemisinin] ?
# output 9.68

====

tested on: U-2OS human osteosarcoma; test: Cell viability MTT assay, U-2OS; assay type: cell-based; settings: Homo sapiens, U2OS; Table 3, tumor cell model; read-out: IC50 U2OS (bone tumor)
measuredProperty: IC50 (µM)
Answers are plain numbers, in µM.

# input What IC50 value was documented for this molecule, C[C@H]1[C@@H](O)O[C@@H]2O[C@]3(C)CC[C@H]4[C@H](C)CC[C@@H]1[C@@]24OO3 [DHA, dihydroartemisinin] ?
# output 4.1
